molecular target: Aryl hydrocarbon receptor (Homo sapiens) (UniProt P35869); assay: ATG_Ahr_CIS: Attagene CIS-FACTORIAL HepG2 Assay for human Aryl Hydrocarbon Receptor (Ahr) (AID 2282930); conditions: HepG2 AhR cis-factorial reporter transcription; actives raise or lower the signal
Sequence (P35869 whole entry, looked up): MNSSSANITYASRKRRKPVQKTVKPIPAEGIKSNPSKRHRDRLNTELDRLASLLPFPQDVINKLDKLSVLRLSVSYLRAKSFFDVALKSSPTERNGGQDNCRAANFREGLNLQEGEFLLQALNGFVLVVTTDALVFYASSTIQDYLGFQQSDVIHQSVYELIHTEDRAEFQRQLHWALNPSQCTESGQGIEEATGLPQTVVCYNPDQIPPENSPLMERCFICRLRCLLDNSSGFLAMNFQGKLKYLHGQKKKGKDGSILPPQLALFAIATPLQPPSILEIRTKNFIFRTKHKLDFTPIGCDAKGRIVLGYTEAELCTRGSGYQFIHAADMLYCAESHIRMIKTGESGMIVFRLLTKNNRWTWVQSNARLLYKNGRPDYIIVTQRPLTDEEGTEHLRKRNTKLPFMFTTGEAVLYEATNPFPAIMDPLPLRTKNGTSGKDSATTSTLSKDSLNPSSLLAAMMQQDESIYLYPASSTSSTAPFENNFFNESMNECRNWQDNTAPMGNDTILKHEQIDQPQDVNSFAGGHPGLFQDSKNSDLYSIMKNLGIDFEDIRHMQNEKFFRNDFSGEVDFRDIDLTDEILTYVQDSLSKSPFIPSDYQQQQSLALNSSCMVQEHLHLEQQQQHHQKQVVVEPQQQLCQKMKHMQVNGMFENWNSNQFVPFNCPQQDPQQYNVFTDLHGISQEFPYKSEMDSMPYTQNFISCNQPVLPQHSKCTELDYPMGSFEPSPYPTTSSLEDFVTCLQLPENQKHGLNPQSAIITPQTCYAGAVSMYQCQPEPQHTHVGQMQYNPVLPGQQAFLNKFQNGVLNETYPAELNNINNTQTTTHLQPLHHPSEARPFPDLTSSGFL
Active and inactive are the calls of the source. How the source made its calls: active means hit-call score of the fitted dose curve at least 0.9, where 1 is the maximum; inactive means score below 0.9.
The reply should be one of these categories: true for active, false for inactive

Assay outcome for COP(=O)(OC)O/C(C)=C/C(=O)N(C)C : what was it?
false

Assay outcome for CSC(=O)c1c(C(F)F)nc(C(F)(F)F)c(C(=O)SC)c1CC(C)C : what was it?
true

Assay outcome for Nc1c(Cl)c(F)nc(OCC(=O)O)c1Cl : what was it?
false

Assay outcome for CC1(C)CON(Cc2ccccc2Cl)C1=O : what was it?
false

Assay outcome for CNC(=O)Oc1cccc2ccccc12 : what was it?
true

Assay outcome for COC(=O)N(C(=O)N1CO[C@@]2(C(=O)OC)Cc3cc(Cl)ccc3C2=N1)c1ccc(OC(F)(F)F)cc1 : what was it?
false

Assay outcome for COCC(=O)N(c1c(C)cccc1C)C(C)C(=O)OC (stereo not given) : what was it?
true

====

read-out: BCL2L11 (gene 10018); assay: LTEA_HepaRG_BCL2L11: Life Technologies and Expression Analysis (LTEA) Assay for Bcl-2 (BCL2L11) gene using HepaRG (AID 2283473); details: mRNA level, 48 h; actives raise or lower the signal
Active and inactive are the calls of the source. The calls were made as follows: active = hit-call score of the fitted dose curve at least 0.9, where 1 is the maximum; inactive = score below 0.9.
The reply should be one of these categories: active, inactive

COC(=O)c1c(C(F)F)nc(C(F)(F)F)c(C2=NCCS2)c1CC(C)C
inactive
OC(c1ccc(Cl)cc1)(c1ccc(Cl)cc1)C(Cl)(Cl)Cl
inactive
Cc1cc(C)nc(Nc2ccccc2)n1
inactive
CCCN(CC)CC1COC2(CCC(C(C)(C)C)CC2)O1 (stereo not given)
inactive
CCOP(=O)(OCC)Oc1nc(Cl)c(Cl)cc1Cl
active

Assay outcome for Cc1cnc(C2=NC(C)(C(C)C)C(=O)N2)c(C(=O)O)c1 (stereo not given) : what was it?
inactive

Assay outcome for CCCCC(C#N)(Cn1cncn1)c1ccc(Cl)cc1 (stereo not given) : what was it?
inactive

Assay outcome for CC(C)Oc1cccc(NC(=O)c2ccccc2C(F)(F)F)c1 : what was it?
inactive

Assay outcome for N#CN=C1SCCN1Cc1ccc(Cl)nc1 : what was it?
inactive

Assay outcome for CSC(=O)c1c(C(F)F)nc(C(F)(F)F)c(C(=O)SC)c1CC(C)C : what was it?
inactive

====

test: APR_HepG2_MicrotubuleCSK_72hr: Apredica 72-hour HepG2 Assay for Microtubule CSK Stabilty (AID 2282919); details: HepG2 microtubule cytoskeleton, high-content imaging, actives raise or lower the signal
The source made the active and inactive calls. Rule for the calls: active = hit-call score of the fitted dose curve at least 0.9, where 1 is the maximum; inactive = score below 0.9.
Reported endpoint: AC50

CCCN(CC)CC1COC2(CCC(C(C)(C)C)CC2)O1 (stereo unspecified)
62.5 µM (active)
CC(C)NC(=O)N1CC(=O)N(c2cc(Cl)cc(Cl)c2)C1=O
inactive
CC(C)=CC1C(C(=O)OCc2coc(Cc3ccccc3)c2)C1(C)C (stereo unspecified)
74.2 µM (active)
COP(=S)(OC)SCn1nnc2ccccc2c1=O
inactive
COCC(C)N(C(=O)CCl)c1c(C)csc1C (stereo unspecified)
105 µM (active)
COc1cc(OC)nc(NC(=O)NS(=O)(=O)c2ncccc2OCC(F)(F)F)n1
inactive
CC(C)(C)C(=O)C(Oc1ccc(Cl)cc1)n1cncn1 (stereo unspecified)
inactive
CC(C)N1C(=O)N(c2ccccc2)CSC1=NC(C)(C)C
32.6 µM (active)
COP(=O)(OC)O/C(C)=C/C(=O)N(C)C
inactive
CC1(C)C(C=C(Cl)Cl)C1C(=O)OC(C#N)c1cccc(Oc2ccccc2)c1 (stereo unspecified)
inactive

Proceed to the following item.
Measured AC50 of CCOc1cc(C(C)(C)C)ccc1C1COC(c2c(F)cccc2F)=N1 (stereo unspecified) : 47.2 µM (active)

====

assay: APR_HepG2_MitoticArrest_72hr: Apredica 72-hour HepG2 Assay for Mitotic Arrest (AID 2282918); settings: high-content imaging, actives raise or lower the signal
The source made the active and inactive calls. The calls were made as follows: active = hit-call score of the fitted dose curve at least 0.9, where 1 is the maximum; inactive = score below 0.9.
The reply should be one of these categories: active, inactive

A selection of reference data follows.
O=P(O)(O)CCCl
inactive
Clc1cccc(C(Cl)(Cl)Cl)n1
inactive
CCN(CC)c1nc(C)cc(OP(=S)(OC)OC)n1
inactive
COc1cc(Cl)c(OC)cc1Cl
inactive
CCSC(=O)N1CCCCCC1
inactive
CNC(=O)Oc1cccc2ccccc12
inactive
O=c1n(Cl)c(=O)n(Cl)c(=O)n1Cl
inactive
C=CCOC(=O)C(C)(C)OC(=O)c1cc(-n2c(=O)cc(C(F)(F)F)n(C)c2=O)ccc1Cl
active
CCCC(=NOCC)C1=C(O)CC(CC(C)SCC)CC1=O (stereo not given)
inactive
Cc1cnc(C2=NC(C)(C(C)C)C(=O)N2)c(C(=O)O)c1 (stereo not given)
inactive

Assay outcome for CC(C)NC(=O)N1CC(=O)N(c2cc(Cl)cc(Cl)c2)C1=O : what was it?
inactive

====

read-out: Peroxisomal acyl-coenzyme A oxidase 1 (ACOX1) gene, ACOX1 (gene 51); experiment: LTEA_HepaRG_ACOX1: Life Technologies and Expression Analysis (LTEA) Assay for Peroxisomal acyl-coenzyme A oxidase 1 (ACOX1) gene using HepaRG (AID 2283467); conditions: mRNA level, 48 h; actives raise or lower the signal
Active and inactive are the calls of the source. How the source made its calls: active means hit-call score of the fitted dose curve at least 0.9, where 1 is the maximum; inactive means score below 0.9.
The reply should be one of these categories: t = active, f = inactive

A selection of reference data follows.
CCOP(=S)(OCC)Oc1nc(Cl)n(C(C)C)n1
t
OC(c1ccc(Cl)cc1)(c1ccc(Cl)cc1)C(Cl)(Cl)Cl
t
CCCC(=NOCC)C1=C(O)CC(CC(C)SCC)CC1=O (centres undefined)
f
CCC(C)n1c(=O)[nH]c(C)c(Br)c1=O (centres undefined)
t
COC(=O)NS(=O)(=O)c1ccc(N)cc1
f

Assay outcome for Clc1nc(Cl)nc(Nc2ccccc2Cl)n1 : what was it?
f

Assay outcome for CN=C=S : what was it?
f

Assay outcome for CCOc1cc(C(C)(C)C)ccc1C1COC(c2c(F)cccc2F)=N1 (centres undefined) : what was it?
f

Assay outcome for CS(=O)(=O)c1cc(C(F)(F)F)ccc1C(=O)c1cnoc1C1CC1 : what was it?
f

Assay outcome for COCC(=O)N(c1c(C)cccc1C)C(C)C(=O)OC (centres undefined) : what was it?
f

Assay outcome for CCCCC(O)(Cn1cncn1)c1ccc(Cl)cc1Cl (centres undefined) : what was it?
t

Assay outcome for Nc1c(Cl)c(F)nc(OCC(=O)O)c1Cl : what was it?
f

Assay outcome for CS(=O)(=O)c1ccc(C(=O)C2C(=O)CCCC2=O)c([N+](=O)[O-])c1 : what was it?
f

Assay outcome for C=C(C)CN(CC)c1c([N+](=O)[O-])cc(C(F)(F)F)cc1[N+](=O)[O-] : what was it?
f

Assay outcome for COCC(C)N(C(=O)CCl)c1c(C)csc1C (centres undefined) : what was it?
f

Assay outcome for COC(=O)NC(=S)Nc1ccccc1NC(=S)NC(=O)OC : what was it?
f

Assay outcome for O=C1C2CC=CCC2C(=O)N1SC(Cl)(Cl)Cl (centres undefined) : what was it?
f

Assay outcome for CC1(C)CCC(=Cc2ccc(Cl)cc2)C1(O)Cn1cncn1 (centres undefined) : what was it?
f

Assay outcome for CCOc1nc(F)cc2nc(S(=O)(=O)Nc3c(Cl)cccc3Cl)nn12 : what was it?
f

Assay outcome for COP(=S)(OC)Oc1ccc([N+](=O)[O-])c(C)c1 : what was it?
f

Assay outcome for COCc1cnc(C2=NC(C)(C(C)C)C(=O)N2)c(C(=O)O)c1 (centres undefined) : what was it?
f

Assay outcome for O=C(Nc1ccccc1-c1ccc(Cl)cc1)c1cccnc1Cl : what was it?
f

Assay outcome for CCCCOCN(C(=O)CCl)c1c(CC)cccc1CC : what was it?
f

Assay outcome for CC(C)NC(=O)N1CC(=O)N(c2cc(Cl)cc(Cl)c2)C1=O : what was it?
t

Assay outcome for O=P(O)(O)CCCl : what was it?
f

Assay outcome for COc1cc(Cl)c(OC)cc1Cl : what was it?
f

Assay outcome for N#CN=C1SCCN1Cc1ccc(Cl)nc1 : what was it?
f

Assay outcome for COP(=O)(OC)O/C(C)=C/C(=O)N(C)C : what was it?
f

Assay outcome for CCNC(=O)NC(=O)C(C#N)=NOC : what was it?
f

Assay outcome for CCN(CC)c1nc(C)cc(OP(=S)(OC)OC)n1 : what was it?
f

====

assay: BSK_3C_SRB: Viability Assessment in the BioMAP Diversity Plus: 3C Assay (AID 2283023); settings: primary human endothelial cells (HUVEC);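 further: cells read 24 h after compound dosing; fitted both ways against DMSO so a hit may be signal rise or drop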
Active and inactive are the calls of the source. How the source made its calls: active means hit-call score of the fitted dose curve at least 0.9, where 1 is the maximum; inactive means score below 0.9.
The reply should be one of these categories: yes (1) (active), no (0) (inactive)

Cc1cc(C)nc(Nc2ccccc2)n1
no (0)
CCOc1cc(C(C)(C)C)ccc1C1COC(c2c(F)cccc2F)=N1 (stereo not drawn)
yes (1)

Assay outcome for O=C1C2CC=CCC2C(=O)N1SC(Cl)(Cl)Cl (stereo not drawn) : what was it?
no (0)

Assay outcome for CCN(CC)C(=O)C(C)Oc1cccc2ccccc12 (stereo not drawn) : what was it?
yes (1)

Assay outcome for N#CN=C1SCCN1Cc1ccc(Cl)nc1 : what was it?
no (0)

Assay outcome for COC(=O)NS(=O)(=O)c1ccc(N)cc1 : what was it?
no (0)

Assay outcome for CC1(C)C(C(=O)OC(C#N)c2cccc(Oc3ccccc3)c2)C1(C)C (stereo not drawn) : what was it?
yes (1)

Assay outcome for CS(=O)(=O)c1cc(C(F)(F)F)ccc1C(=O)c1cnoc1C1CC1 : what was it?
no (0)

Assay outcome for CN=C=S : what was it?
no (0)
